Origin of the recorded values: paper doi:10.1101/2024.11.16.623948

- measurementTarget: FLAG-Ago1 (Drosophila melanogaster, UniProt A1Z9J5 1-950)
- Sequence (A1Z9J5 entry or part of it): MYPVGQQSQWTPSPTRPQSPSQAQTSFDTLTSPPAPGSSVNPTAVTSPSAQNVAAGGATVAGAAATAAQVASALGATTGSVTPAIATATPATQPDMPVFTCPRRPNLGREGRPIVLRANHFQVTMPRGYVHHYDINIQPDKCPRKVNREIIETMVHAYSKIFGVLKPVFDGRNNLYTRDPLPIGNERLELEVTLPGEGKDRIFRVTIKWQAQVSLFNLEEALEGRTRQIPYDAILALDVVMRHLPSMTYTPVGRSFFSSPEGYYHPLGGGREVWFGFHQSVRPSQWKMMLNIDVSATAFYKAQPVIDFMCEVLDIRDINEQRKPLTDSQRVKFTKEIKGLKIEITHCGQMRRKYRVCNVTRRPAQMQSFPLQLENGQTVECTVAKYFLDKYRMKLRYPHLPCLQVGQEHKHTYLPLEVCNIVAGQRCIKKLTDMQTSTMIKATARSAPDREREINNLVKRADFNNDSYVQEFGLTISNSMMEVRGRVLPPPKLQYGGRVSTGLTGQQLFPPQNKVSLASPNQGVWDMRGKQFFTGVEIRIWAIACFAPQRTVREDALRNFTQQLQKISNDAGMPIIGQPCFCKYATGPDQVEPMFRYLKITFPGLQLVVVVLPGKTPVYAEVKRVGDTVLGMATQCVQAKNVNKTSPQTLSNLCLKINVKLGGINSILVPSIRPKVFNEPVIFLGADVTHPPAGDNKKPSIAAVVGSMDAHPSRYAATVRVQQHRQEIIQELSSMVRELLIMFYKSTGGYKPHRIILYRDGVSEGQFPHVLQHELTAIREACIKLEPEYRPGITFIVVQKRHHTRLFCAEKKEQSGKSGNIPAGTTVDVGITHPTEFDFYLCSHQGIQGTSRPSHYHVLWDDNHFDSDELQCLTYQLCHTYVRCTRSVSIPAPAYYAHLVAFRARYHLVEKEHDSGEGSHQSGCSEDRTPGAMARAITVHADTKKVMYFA
- procedureSummary: RBNS; let-7 guide; RBNS: 20 mM HEPES-KOH pH 7.9, 100 mM KOAc, 3.5 mM Mg(OAc) (magnesium acetate), 0.05% CHAPS, 2 mM DTT, 8% glycerol, BSA, tRNA, 25 C 2 h; filter binding: 25 mM HEPES-KOH pH 7.9, 110 mM KOAc, 3.5 mM magnesium acetate, 2 mM DTT, BSA, tRNA, 8% glycerol, 25 C 2 h; competition: 18 mM HEPES-KOH pH 7.4, 100 mM KOAc, 3 mM magnesium acetate, 5 mM DTT, 0.01% IGEPAL, tRNA, 25 C 1 h
- experimentalSetup: protein: recombinant; tags: FLAG; G:U at g8
pKd: −log10 of the molar value.
measuredParameter: pKd

>>> df
                                     binder  testresult
0  let-7 / 8mer-w8 (dsRNA, guide 5' phosphate) RNA 1: UGAGGUAGUAGGUUGUAUAGU RNA 2: UUACCUCA       10.81
